measurement-target: SARS-CoV-2 prefusion-stabilized spike protein (SARS-CoV-2-PreS) (SARS-CoV-2, UniProt P0DTC2 14-1208)
experimental-details: Biacore, apparent affinity
pKd: −log10 of the molar value.

# binder, pKd
records = [
    ("16H7 VHH (VHH) VHH: QVQLVESGGGLVQAGGSLRLSCAASGRAFSKDTMGWFRQAPGKEREFVAVISASGDSTYYADFVKGRFTISRDNAKNTEYLQMNSLKPEDTAVYHCAADGARAYYSINAHRYSWAYNYWGQGTQVTVSS", 6.64),
    ("11F8 VHH (VHH) VHH: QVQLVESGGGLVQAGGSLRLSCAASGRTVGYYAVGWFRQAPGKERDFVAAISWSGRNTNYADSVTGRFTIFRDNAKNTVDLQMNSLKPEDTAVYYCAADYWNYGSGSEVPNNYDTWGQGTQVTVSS", 9.02),
]
